molecules and their reported % engagement CTC1_C584
Measured Target: CTC1_C584 (Homo sapiens)
Construct: endogenous in cells; host or cells: 22Rv1
Sequence (Q2NKJ3 whole entry): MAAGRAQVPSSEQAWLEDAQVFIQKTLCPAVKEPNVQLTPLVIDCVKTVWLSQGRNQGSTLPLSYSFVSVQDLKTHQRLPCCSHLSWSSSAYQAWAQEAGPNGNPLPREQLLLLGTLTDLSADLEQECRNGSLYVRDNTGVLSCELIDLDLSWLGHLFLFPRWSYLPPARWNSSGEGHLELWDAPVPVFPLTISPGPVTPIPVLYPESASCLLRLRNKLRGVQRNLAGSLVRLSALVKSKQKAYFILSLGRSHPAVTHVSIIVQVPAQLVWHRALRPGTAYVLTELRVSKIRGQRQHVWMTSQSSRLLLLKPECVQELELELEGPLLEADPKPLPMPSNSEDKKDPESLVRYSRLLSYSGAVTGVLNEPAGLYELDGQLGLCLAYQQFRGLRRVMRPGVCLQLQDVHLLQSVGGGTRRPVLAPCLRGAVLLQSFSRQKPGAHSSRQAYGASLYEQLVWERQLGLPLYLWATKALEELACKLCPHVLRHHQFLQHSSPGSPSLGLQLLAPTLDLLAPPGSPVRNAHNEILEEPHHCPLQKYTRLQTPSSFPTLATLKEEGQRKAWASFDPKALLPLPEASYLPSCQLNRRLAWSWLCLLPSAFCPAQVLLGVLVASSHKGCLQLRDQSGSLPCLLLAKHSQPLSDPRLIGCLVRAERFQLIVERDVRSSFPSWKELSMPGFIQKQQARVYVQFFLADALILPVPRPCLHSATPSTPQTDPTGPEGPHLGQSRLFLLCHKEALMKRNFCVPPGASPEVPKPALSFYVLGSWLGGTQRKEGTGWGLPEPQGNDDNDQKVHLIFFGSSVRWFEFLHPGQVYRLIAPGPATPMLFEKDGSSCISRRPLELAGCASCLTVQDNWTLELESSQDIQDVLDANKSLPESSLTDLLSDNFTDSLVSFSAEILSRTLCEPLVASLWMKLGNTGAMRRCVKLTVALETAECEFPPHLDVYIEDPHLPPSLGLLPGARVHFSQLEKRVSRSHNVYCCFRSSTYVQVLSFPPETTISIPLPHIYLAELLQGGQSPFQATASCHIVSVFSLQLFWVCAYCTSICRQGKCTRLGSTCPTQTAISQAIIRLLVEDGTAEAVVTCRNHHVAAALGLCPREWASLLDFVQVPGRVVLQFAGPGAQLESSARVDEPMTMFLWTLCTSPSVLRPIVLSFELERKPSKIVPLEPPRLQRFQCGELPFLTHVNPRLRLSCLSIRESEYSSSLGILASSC
Run Description: IA-DTB cysteine engagement
Assay type: binding
Recorded Conditions: 22Rv1 cells, 20 μM probe, 1 h, relative to DMSO
Readout: % engagement CTC1_C584 (%)

| Molecule | Value Observed |
| --- | --- |
| C=CC(=O)N1C[C@@H](c2ccc(Br)cc2)[C@H]1C(=O)Nc1cccc2cccnc12 | 20.25 |
| C=CC(=O)N1C[C@H](c2ccc(Br)cc2)[C@@H]1C(=O)Nc1cccc2cccnc12 | 37.25 |
| C=CC(=O)N1C[C@H](c2ccc(Br)cc2)[C@H]1C(=O)Nc1cccc2cccnc12 [MY-3B] | 66.25 |
| C=CC(=O)N1C[C@H](c2ccc(Br)cc2)[C@H]1C(=O)Nc1cccc2cccnc12 [MY-3A] | 23.5 |

Origin of measurements: patent US20250034216A1
